// provenance: patent US10550190B2

experiment: Solubility of drug-linkers in 20% MeCN/H2O; conditions: aqueous with cosolvent or surfactant or cyclodextrin
readout: solubility

Problem: Look up and state reported solubility for C[C@@H]1C[C@H]2[C@@H]3CCC4=CC(=O)C=C[C@]4(C)[C@@]3(F)[C@@H](O)C[C@]2(C)[C@@]1(O)C(=O)COP(=O)(O)OP(=O)(O)Oc1ccc(NC(=O)COC2C#CCCCCC2)cc1 (some centres unmarked)
Result: > 10000 µg/mL

Problem: Dear colleague, please send me the reported solubility for C[C@@H]1C[C@H]2[C@@H]3CCC4=CC(=O)C=C[C@]4(C)[C@@]3(F)[C@@H](O)C[C@]2(C)[C@@]1(O)C(=O)COP(=O)(O)Oc1ccc(NC(=O)COC2C#CCCCCC2)cc1 (some centres unmarked) when you can.
Result: > 10000 µg/mL
